target: STING (Homo sapiens, UniProt Q86WV6, G230A/H232R/R293Q/R71H); experiment: STING reporter assay: THP1-Dual KO-IFNAR2 cells stimulated with 2′3′cGAMP, luciferase reporter activity; format: cell-based; settings: 15 μM 2′3′cGAMP, 24h, class symbols
Sequence (Q86WV6 whole entry R71H/G230A/H232R/R293Q): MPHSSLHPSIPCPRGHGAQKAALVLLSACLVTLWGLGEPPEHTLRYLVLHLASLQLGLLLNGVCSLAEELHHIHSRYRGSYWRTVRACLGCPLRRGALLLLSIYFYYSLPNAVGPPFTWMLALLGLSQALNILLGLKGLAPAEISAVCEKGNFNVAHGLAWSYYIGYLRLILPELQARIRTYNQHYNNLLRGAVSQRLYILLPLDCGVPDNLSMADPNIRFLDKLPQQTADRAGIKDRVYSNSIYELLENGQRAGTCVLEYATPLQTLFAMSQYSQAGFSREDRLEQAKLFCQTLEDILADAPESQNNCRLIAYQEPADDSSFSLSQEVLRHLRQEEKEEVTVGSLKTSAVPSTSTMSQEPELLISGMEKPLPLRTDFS
Quick reference: EC50 of the listed items.

smiles.record: Cc1cc(NC(=O)Nc2ccc(C(F)(F)F)cc2)cc2[nH]cc(C#N)c12
EC50: 1000 to 5000 nM

smiles.record: O=C(Nc1ccc(C(F)(F)F)cc1)Nc1cnc2cc[nH]c2c1
EC50: 200 to 1000 nM

smiles.record: c1ccc(-c2ccnc(Nc3ccc4cc[nH]c4c3)c2)cc1
EC50: 1000 to 5000 nM

input: Hi! What's the reported EC50 for Cn1ccc2ccc(Nc3ccc4ccc(C(F)(F)F)cc4n3)cc21 on STING (Homo sapiens, UniProt Q86WV6, G230A/H232R/R293Q/R71H)?
output: 5000 to 100000 nM

input: So what EC50 did FC(F)(F)COc1cccc(Nc2ccc3cc[nH]c3c2)n1 get with STING (Homo sapiens, UniProt Q86WV6, G230A/H232R/R293Q/R71H)?
output: 5000 to 100000 nM

input: Request - read-out EC50 | tested on STING (Homo sapiens, UniProt Q86WV6, G230A/H232R/R293Q/R71H) | compound CNC(=O)OCCc1cc(NC(=O)Nc2ccc(C(F)(F)F)cc2)cc2[nH]ccc12
output: 1000 to 5000 nM

input: Hello, I am looking for reported EC50 with STING (Homo sapiens, UniProt Q86WV6, G230A/H232R/R293Q/R71H) for O=C(Nc1ccc(C(F)(F)F)cc1)Nc1ccc2c(Br)c[nH]c2c1 . Could you help?
output: 200 to 1000 nM

input: Give recorded EC50 with STING (Homo sapiens, UniProt Q86WV6, G230A/H232R/R293Q/R71H) for the following compound: O=C(NCc1cc(Cl)cc(C(F)(F)F)c1)Nc1cc(Cl)c2cc[nH]c2c1
output: 200 to 1000 nM

----------
Form field: pEC50 (one value per entry).
biological target: STING (Homo sapiens, UniProt Q86WV6, G230A/H232R/R293Q/R71H); assay: STING reporter assay: THP1-Dual KO-IFNAR2 cells stimulated with 2′3′cGAMP, luciferase reporter activity; assay type: cell-based; conditions: 15 μM 2′3′cGAMP, 24h, class symbols
pEC50: −log10 of the molar value.

input: If you can, please state the reported pEC50 value of O=C(Nc1cc(Cl)cc(C(F)(F)F)c1)Nc1ccc2cc[nH]c2c1 .
output: 6.00 to 6.70

input: Fill in: pEC50 of Fc1cc(C(F)(F)F)cc2nc(Nc3ccc4cc[nH]c4c3)ccc12 is ___
output: 5.30 to 6.00

input: Data request, read-out pEC50, for Cc1ccc(CCNC(=O)Nc2ccc3cc[nH]c3c2)cc1C
output: 5.30 to 6.00

input: Form field: reported pEC50 of c1cc2c(c(Nc3ccc4cc[nH]c4c3)n1)CCCC2
output: 4.00 to 5.30

input: For O=C(Nc1ccc2[nH]ccc2c1)Nc1cc2cccc(C(F)(F)F)n2n1 , what is its reported pEC50?
output: 4.00 to 5.30

input: Fill in: pEC50 of Fc1cnc(Nc2ccc3cc[nH]c3c2)cc1Nc1ccc2cc[nH]c2c1 is ___
output: 5.30 to 6.00

input: Value lookup for pEC50; key = [N-]=[N+]=Nc1ccc(NC(=O)Nc2ccc3cc[nH]c3c2)cc1
output: 5.30 to 6.00

input: Field request: pEC50 | item: FC(F)(F)c1cc2nc(Nc3ccc4cc[nH]c4c3)ccc2cc1Cl
output: 5.30 to 6.00

input: Recorded pEC50 of O=C(Nc1ccc(C(F)(F)F)c(Cl)c1)Nc1ccc2cc[nH]c2c1 , please.
output: 6.00 to 6.70

input: What value of pEC50 has been reported for the following molecule? N#Cc1c[nH]c2cc(NC(=O)Nc3cccc(C(F)(F)F)c3)ccc12
output: 4.00 to 5.30

input: If you can, please state the reported pEC50 value of FC(F)(F)c1ccc(Nc2ccc3cc[nH]c3c2)nc1Cl .
output: 5.30 to 6.00

input: GET /values?readout=pEC50&item= O=C(NCCOc1cccnc1)Nc1ccc2cc[nH]c2c1
output: 4.00 to 5.30

input: Which pEC50 value is on record for O=c1c(Nc2ccc(C(F)(F)F)cc2)c(Nc2ccc3cc[nH]c3c2)c1=O ?
output: 5.30 to 6.00

input: May I ask what pEC50 has been recorded for O=C(Nc1cc(F)cc(C(F)(F)F)c1)Nc1cc(CCO)c2cc[nH]c2c1 ?
output: 5.30 to 6.00

input: Value lookup for pEC50; key = O=C(Nc1cccc(S(=O)(=O)N2CCCC2)c1)Nc1ccc2cc[nH]c2c1
output: 4.00 to 5.30

input: I'd like to know its pEC50. The molecule in question is Cc1ccc2nc(Nc3ccc4cc[nH]c4c3)ccc2c1C(F)(F)F
output: 6.00 to 6.70
